Tested on: Kanzawa spider mite (Tetranychus kanzawai kishida) which are resistant to Compound A
protocol_details: Miticidal effect against female imagines of Kanzawa spider mite resistant to Compound A (leaf disk spray test)
condition_description: single active ingredient; female imago, Compound A-resistant colony; mortality two days after spray treatment; probit method
Procedure: Round leaf disks (2 cm diameter) are cut out of a first leaf of kidney bean by using a leaf punch and 4 sheets of the leaf disks are placed on wet sanitary cotton on a PVC cup of 8 cm diameter. Each PVC cup is sprayed with 3.5 ml of the test solution by using a rotary spray tower (manufactured by Mizuho Scientific Co., Ltd.) and stored in a constant temperature chamber held at 25±° C. […]
Can you tell me LC50 (ppm) for the items I'm about to list?
Reply with just the number (in ppm).

Looking up CC1(C)C(C(=O)OC(C#N)c2cccc(Oc3ccccc3)c2)C1(C)C (racemic) [Fenpropathrin] , I see its LC50 (ppm) listed as 290

Looking up CCOc1ccc(C(C)(C)COCc2cccc(Oc3ccccc3)c2)cc1 [Ethofenprox] , I see its LC50 (ppm) listed as 620

Looking up CC1(C)C(C=C(Cl)Cl)C1C(=O)OCc1cccc(Oc2ccccc2)c1 (stereo not drawn) [Permethrin] , I see its LC50 (ppm) listed as 440

Looking up CC1(C)C(C=C(Cl)Cl)C1C(=O)OC(C#N)c1cccc(Oc2ccccc2)c1 (racemic) [Cypermethrin] , I see its LC50 (ppm) listed as 2500

Looking up CCOCn1c(-c2ccc(Cl)cc2)c(C#N)c(Br)c1C(F)(F)F [Compound A] , I see its LC50 (ppm) listed as 1500

Looking up CC1(C)C(C=C(Cl)Cl)C1C(=O)OC(C#N)c1ccc(F)c(Oc2ccccc2)c1 (racemic) [Cyfluthrin] , I see its LC50 (ppm) listed as 1500

Looking up CC(C)[C@H](Nc1ccc(C(F)(F)F)cc1Cl)C(=O)OC(C#N)c1cccc(Oc2ccccc2)c1 (stereo partly drawn) [Fluvalinate] , I see its LC50 (ppm) listed as 180

Looking up Cc1c(COC(=O)[C@@H]2[C@H](/C=C(\Cl)C(F)(F)F)C2(C)C)cccc1-c1ccccc1 (racemic) [Bifenthrin] , I see its LC50 (ppm) listed as 20

Looking up CC1(C)[C@H](C(=O)O[C@@H](C#N)c2cccc(Oc3ccccc3)c2)[C@@H]1/C=C(\Cl)C(F)(F)F (racemic) [Cyhalothrin] , I see its LC50 (ppm) listed as 590
